target: human SIRT1 (hSIRT1) (Homo sapiens); construct: His; made in house; test: Human SIRT1 deacetylase inhibition, HDAC fluorescent activity assay (BIOMOL AK-500); type: biochemical; conditions: 100 μM inhibitor, 200 μM NAD+, 37° C., 60 min; read-out: % inhibtn (100 μM) hSIRT1
Sequence (Q96EB6 whole entry): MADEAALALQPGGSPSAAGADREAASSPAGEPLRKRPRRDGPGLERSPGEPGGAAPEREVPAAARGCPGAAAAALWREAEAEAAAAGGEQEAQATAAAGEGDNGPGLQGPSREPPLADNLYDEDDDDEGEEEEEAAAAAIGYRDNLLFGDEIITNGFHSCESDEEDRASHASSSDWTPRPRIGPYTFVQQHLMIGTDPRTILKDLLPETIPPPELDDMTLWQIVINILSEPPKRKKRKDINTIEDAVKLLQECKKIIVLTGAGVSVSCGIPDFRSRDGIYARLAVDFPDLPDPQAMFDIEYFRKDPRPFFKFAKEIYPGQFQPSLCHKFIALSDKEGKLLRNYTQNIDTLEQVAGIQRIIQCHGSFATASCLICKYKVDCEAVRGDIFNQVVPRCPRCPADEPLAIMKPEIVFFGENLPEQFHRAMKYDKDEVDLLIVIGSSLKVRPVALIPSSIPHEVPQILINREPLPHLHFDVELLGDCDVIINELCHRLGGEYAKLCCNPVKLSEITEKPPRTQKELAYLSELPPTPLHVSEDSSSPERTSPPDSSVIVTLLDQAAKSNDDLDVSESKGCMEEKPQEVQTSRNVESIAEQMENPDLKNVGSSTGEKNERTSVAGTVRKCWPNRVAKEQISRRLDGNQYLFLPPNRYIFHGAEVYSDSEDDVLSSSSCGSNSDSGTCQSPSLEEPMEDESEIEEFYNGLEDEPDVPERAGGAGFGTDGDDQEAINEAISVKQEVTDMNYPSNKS
Binary call on inhibition at 100 µM: Condition met from 60% upward, Condition not met beneath that.

compound: O=C(O)c1ccccc1/N=C/c1c(O)ccc2ccccc12
label-value: Condition not met
--
compound: CCOC(=O)c1ccccc1/N=C/c1c(O)ccc2ccccc12
label-value: Condition not met
--
compound: CC(NC(=O)c1ccccc1/N=C/c1cccc2ccccc12)c1ccccc1 (stereo not shown)
label-value: Condition not met

INPUT: Answer whether inhibition at 100 µM of CC(NC(=O)c1ccc(/N=C/c2c(O)ccc3ccccc23)cc1)c1ccccc1 (stereo not shown) is greater than or equal to 60%.
OUTPUT: Condition met

INPUT: Say whether CC(NC(=O)c1ccccc1/N=C/c1c(O)ccc2ccccc12)c1ccccc1 (racemic) [Compound 1, sirtinol, reference compound] shows inhibition at 100 µM of 60% or more.
OUTPUT: Condition not met

INPUT: Hi, just wondering whether N#Cc1ccccc1/N=C/c1c(O)ccc2ccccc12 shows inhibition at 100 µM of 60% or higher.
OUTPUT: Condition not met

INPUT: Answer whether inhibition at 100 µM of CC(NC(=O)c1cccc(/N=C/c2c(O)ccc3ccccc23)c1)c1ccccc1 (stereo not shown) is greater than or equal to 60%.
OUTPUT: Condition met

----------
target: yeast Sir2 (ySir2) (Saccharomyces cerevisiae); construct: His; made in house; test: Yeast Sir2 deacetylase inhibition, HDAC fluorescent activity assay (BIOMOL AK-500); format: biochemical; conditions: 100 μM inhibitor, 200 μM NAD+, 30° C., 60 min; read-out: % inhibtn (100 μM) ySir2
Sequence (P06700 whole entry): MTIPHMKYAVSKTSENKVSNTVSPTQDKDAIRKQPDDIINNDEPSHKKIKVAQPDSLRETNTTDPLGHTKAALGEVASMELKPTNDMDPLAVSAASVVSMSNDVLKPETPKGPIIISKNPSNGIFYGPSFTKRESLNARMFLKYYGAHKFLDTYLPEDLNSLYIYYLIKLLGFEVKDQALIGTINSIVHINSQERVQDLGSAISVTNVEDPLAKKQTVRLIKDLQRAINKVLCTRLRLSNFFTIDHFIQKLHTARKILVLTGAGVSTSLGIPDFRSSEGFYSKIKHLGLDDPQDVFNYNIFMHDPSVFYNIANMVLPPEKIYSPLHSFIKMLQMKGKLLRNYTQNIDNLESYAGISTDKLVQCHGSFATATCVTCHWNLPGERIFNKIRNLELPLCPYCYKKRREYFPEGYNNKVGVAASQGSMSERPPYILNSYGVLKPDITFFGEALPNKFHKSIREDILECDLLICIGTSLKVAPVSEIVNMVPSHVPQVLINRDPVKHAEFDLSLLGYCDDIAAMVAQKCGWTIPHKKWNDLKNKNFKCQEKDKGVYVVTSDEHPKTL
Give inhibition at 100 µM for every item shown.

# count of solved cases: 4
molecule: CCOC(=O)c1ccccc1/N=C/c1c(O)ccc2ccccc12
inhibition at 100 µM: 20%

molecule: CC(NC(=O)c1ccccc1/N=C/c1c(O)ccc2ccccc12)c1ccccc1 (racemic) [Compound 1, sirtinol, reference compound]
inhibition at 100 µM: 65.6%

molecule: CC(NC(=O)c1ccc(/N=C/c2c(O)ccc3ccccc23)cc1)c1ccccc1 (stereo not shown)
inhibition at 100 µM: 59.8%

molecule: C[C@H](NC(=O)c1ccccc1/N=C/c1c(O)ccc2ccccc12)c1ccccc1
inhibition at 100 µM: 57%

Would you mind listing inhibition at 100 µM for each of the following molecules?
1. O=C(O)c1ccccc1/N=C/c1c(O)ccc2ccccc12
2. N#Cc1ccccc1/N=C/c1c(O)ccc2ccccc12
3. C[C@@H](NC(=O)c1ccccc1/N=C/c1c(O)ccc2ccccc12)c1ccccc1 [Compound 9, (R)-sirtinol]
4. CC(NC(=O)c1cccc(/N=C/c2c(O)ccc3ccccc23)c1)c1ccccc1 (stereo not shown)
5. CC(NC(=O)c1ccccc1/N=C/c1cccc2ccccc12)c1ccccc1 (stereo not shown)

OUTPUT:
["5%", "15%", "55.5%", "53.9%", "10%"]

Record summary for NC(=O)c1ccccc1/N=C/c1c(O)ccc2ccccc12 : reported inhibition at 100 µM = 0 to 5%

----------
Would you mind telling me the reported inhibition at 100 µM of each entry?
target: human SIRT1 (hSIRT1) (Homo sapiens); construct: His; made in house; test: Human SIRT1 deacetylase inhibition, HDAC fluorescent activity assay (BIOMOL AK-500); format: biochemical; conditions: 100 μM inhibitor, 200 μM NAD+, 37° C., 60 min; read-out: % inhibtn (100 μM) hSIRT1
Answers are plain numbers, in %.

compound: C[C@H](NC(=O)c1ccccc1/N=C/c1c(O)ccc2ccccc12)c1ccccc1
target-system: human SIRT1 (hSIRT1) (Homo sapiens)
measure-name: inhibition at 100 µM
experimental-value: 60.2

Field: next compound
C[C@@H](NC(=O)c1ccccc1/N=C/c1c(O)ccc2ccccc12)c1ccccc1 [Compound 9, (R)-sirtinol] tested on human SIRT1 (hSIRT1) (Homo sapiens) gave inhibition at 100 µM: 61.8

Each recorded value in this set is attributed to patent US20090137681A1.
